Molecular target: T1, human TL1A extracellular domain with N-terminal HIS and FLAG tag (human, UniProt O95150 72-251)
T1 construct: the whole entry is named; also called TNFSF15
T1 sequence: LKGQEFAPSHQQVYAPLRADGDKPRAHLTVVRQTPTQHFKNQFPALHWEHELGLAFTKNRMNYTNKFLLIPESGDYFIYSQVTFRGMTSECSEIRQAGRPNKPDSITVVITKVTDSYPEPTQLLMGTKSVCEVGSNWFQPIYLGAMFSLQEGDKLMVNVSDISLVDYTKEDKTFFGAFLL
Assay: SPR Run 9, antibody on Protein A, TL1A 5 ug/mL, timepoint 44
This section presents binders with their documented TL1A Binding Level (Early) values.
Express your answer in RU, writing the number without its unit.

Record excerpt, results attached:
binder="320-612 (antibody, human IgG1, name in Kabat numbering, V domains shown, full-length human IgG1, lambda) VH: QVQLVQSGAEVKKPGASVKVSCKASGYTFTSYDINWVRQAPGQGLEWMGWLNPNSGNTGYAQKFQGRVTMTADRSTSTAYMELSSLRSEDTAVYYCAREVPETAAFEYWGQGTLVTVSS VL: QSVLTQPPSVSGAPGQRVTISCTSSSSDIGAGLGVHWYQQLPGTAPKLLIEGYYNRPSGVPDRFSGSKSGTSASLTITGLLPEDEGDYYCQSWDYTLSALFGGGTKLTVLG" test_value=126
binder="320-598 (antibody, human IgG1, name in Kabat numbering, V domains shown, full-length human IgG1, lambda) VH: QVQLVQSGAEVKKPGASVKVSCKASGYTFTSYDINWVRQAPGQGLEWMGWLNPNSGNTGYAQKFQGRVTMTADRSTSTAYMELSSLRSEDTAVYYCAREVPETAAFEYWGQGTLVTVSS VL: QSVLTQPPSVSGAPGQRVTISCTSSSSDIGAGLGVLWYQQLPGTAPKLLIEGYYNRPSGVPDRFSGSKSGTSASLTITGLLPEDEGDYYCQSFDGTLSALFGGGTKLTVLG" test_value=112

Could you now consider this next binder?
Task item: State its TL1A Binding Level (Early) for this binder: 320-602 (antibody, human IgG1, name in Kabat numbering, V domains shown, full-length human IgG1, lambda) VH: QVQLVQSGAEVKKPGASVKVSCKASGYTFTSYDINWVRQAPGQGLEWMGWLNPNSGYTGYAQKFQGRVTMTADRSTSTAYMELSSLRSEDTAVYYCAREVPETAAFEYWGQGTLVTVSS VL: QSVLTQPPSVSGAPGQRVTISCTSSSSDIGAGQGVHWYQQLPGTAPKLLIEGYYNRPSGVPDRFSGSKSGTSASLTITGLLPEDEGDYYCQSFDGTLSALFGGGTKLTVLG
Reply: 131
